TARGET_OR_TEST_SYSTEM: yeast α-glucosidase (Saccharomyces cerevisiae, UniProt P53341)
Sequence (P53341 whole entry): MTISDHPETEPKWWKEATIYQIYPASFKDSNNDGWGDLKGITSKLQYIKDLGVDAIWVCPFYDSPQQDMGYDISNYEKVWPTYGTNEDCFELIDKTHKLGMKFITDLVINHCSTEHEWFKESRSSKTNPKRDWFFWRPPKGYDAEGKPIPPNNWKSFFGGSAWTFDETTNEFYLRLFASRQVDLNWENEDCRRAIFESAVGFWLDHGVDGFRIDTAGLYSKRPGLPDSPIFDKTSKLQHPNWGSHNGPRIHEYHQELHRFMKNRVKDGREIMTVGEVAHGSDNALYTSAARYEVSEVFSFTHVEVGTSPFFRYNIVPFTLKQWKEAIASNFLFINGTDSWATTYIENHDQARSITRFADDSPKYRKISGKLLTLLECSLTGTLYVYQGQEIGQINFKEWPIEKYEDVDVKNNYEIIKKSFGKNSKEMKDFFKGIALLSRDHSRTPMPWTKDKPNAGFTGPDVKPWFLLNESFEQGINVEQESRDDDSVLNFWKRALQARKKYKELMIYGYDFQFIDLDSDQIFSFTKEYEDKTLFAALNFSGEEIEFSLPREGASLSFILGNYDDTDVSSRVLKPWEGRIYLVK
ASSAY_DETAILS: Inhibition kinetics of α-glucosidase (Lineweaver–Burk and Dixon plots)
Type: biochemical
EXPERIMENTAL_CONDITIONS: Lineweaver–Burk plots
MEASUREMENT_NAME: Inhibition Mode, α-Glucosidase

MOLECULE	Inhibition Mode, α-Glucosidase
COc1ccc2c(OC)c3ccoc3nc2c1OC	Mixed
C[C@H]1O[C@H](O[C@H]2[C@H](O)[C@@H](O)[C@@H](O[C@H]3[C@H](O)[C@@H](O)C(O)O[C@@H]3CO)O[C@@H]2CO)[C@H](O)[C@@H](O)[C@@H]1N[C@H]1C=C(CO)[C@@H](O)[C@H](O)[C@H]1O (stereo partly shown) [Acarbose, acarbose, reference compound]	Competitive
COc1cc(-c2cc3cc(/C=C/CO)cc(OC)c3o2)ccc1O	Uncompetitive
OCC1OC1c1ccc2c(c1)OCO2 (stereo not shown)	Competitive
CC(C)CNC(=O)/C=C/c1ccc2c(c1)OCO2 [Compound 4, fagaramide]	Non-competitive

Look up Inhibition Mode, α-Glucosidase with yeast α-glucosidase (Saccharomyces cerevisiae, UniProt P53341) for this molecule: CC(C)(O)CNC(=O)/C=C/c1ccccc1 [Compound 2, chalybemide B]
Uncompetitive

And the next one, "COc1ccc2c(cnc3c4cc5c(cc4ccc23)OCO5)c1OC" ?
Mixed

And the next one, COc1ccc(CN(C)C(=O)c2ccccc2OC)cc1 [Compound 3, chalybemide C] ?
Non-competitive

And the next one, CC(C)CNC(=O)/C=C/C/C=C/c1ccc2c(c1)OCO2 [Compound 1, Chalybemide A] ?
Non-competitive

* * *

TARGET_OR_TEST_SYSTEM: porcine pancreas α-amylase (Sus scrofa, UniProt P00690)
Sequence (P00690 16-511): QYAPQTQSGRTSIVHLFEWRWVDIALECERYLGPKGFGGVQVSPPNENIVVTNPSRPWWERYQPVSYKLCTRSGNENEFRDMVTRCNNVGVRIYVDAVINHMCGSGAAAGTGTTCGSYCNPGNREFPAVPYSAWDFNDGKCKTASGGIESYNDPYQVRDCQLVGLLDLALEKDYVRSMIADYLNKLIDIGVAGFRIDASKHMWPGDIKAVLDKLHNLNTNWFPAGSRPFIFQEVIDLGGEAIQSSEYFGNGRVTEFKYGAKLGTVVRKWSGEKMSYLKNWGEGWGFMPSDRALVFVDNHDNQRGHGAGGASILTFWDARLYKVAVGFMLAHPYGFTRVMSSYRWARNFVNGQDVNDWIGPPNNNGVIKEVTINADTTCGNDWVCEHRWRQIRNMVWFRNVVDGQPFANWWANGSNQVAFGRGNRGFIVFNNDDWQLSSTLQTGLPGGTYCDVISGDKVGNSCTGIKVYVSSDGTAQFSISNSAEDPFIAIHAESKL
ASSAY_DETAILS: Inhibition kinetics of α-amylase (Lineweaver–Burk and Dixon plots)
EXPERIMENTAL_CONDITIONS: Lineweaver–Burk plots
MEASUREMENT_NAME: Inhibition Mode, α-Amylase

See these solved cases before continuing.
COMPOUND	Inhibition Mode, α-Amylase
c1cc2c(cc1C1OCC3C(c4ccc5c(c4)OCO5)OCC13)OCO2 (stereo not shown) [Compound 11, sesamine]	Non-competitive
CC(C)CNC(=O)/C=C/c1ccc2c(c1)OCO2 [Compound 4, fagaramide]	Non-competitive
CC(C)(O)CNC(=O)/C=C/c1ccccc1 [Compound 2, chalybemide B]	Non-competitive
COc1ccc2c(OC)c3ccoc3nc2c1OC [Compound 5, skimmianine]	Mixed
COc1ccc(CN(C)C(=O)c2ccccc2OC)cc1 [Compound 3, chalybemide C]	Non-competitive

Look up Inhibition Mode, α-Amylase with porcine pancreas α-amylase (Sus scrofa, UniProt P00690) for this compound: OCC1OC1c1ccc2c(c1)OCO2 (stereo not shown) [Compound 10, 2,3-epoxy-6,7-methylenedioxyconiferol]
Competitive

And the next one, C[C@H]1O[C@H](O[C@H]2[C@H](O)[C@@H](O)[C@@H](O[C@H]3[C@H](O)[C@@H](O)C(O)O[C@@H]3CO)O[C@@H]2CO)[C@H](O)[C@@H](O)[C@@H]1N[C@H]1C=C(CO)[C@@H](O)[C@H](O)[C@H]1O (stereo partly shown) [Acarbose, acarbose, reference compound] ?
Competitive

And the next one, COc1ccc2c(cnc3c4cc5c(cc4ccc23)OCO5)c1OC [Compound 6, norchelerythrine] ?
Mixed

And the next one, CC(C)CNC(=O)/C=C/C/C=C/c1ccc2c(c1)OCO2 [Compound 1, Chalybemide A] ?
Non-competitive

// provenance: paper PMC10059848
